The origin of these recorded values is patent US20240116985A1.

Target: T1, full-length beta-Catenin (Uniprot ID P35222) (Homo sapiens (Human), UniProt P35222 2-781)
T1 construct: Tags of the recombinant protein are not described for the FP assay; also called bCat; B-Catenin
T1 sequence: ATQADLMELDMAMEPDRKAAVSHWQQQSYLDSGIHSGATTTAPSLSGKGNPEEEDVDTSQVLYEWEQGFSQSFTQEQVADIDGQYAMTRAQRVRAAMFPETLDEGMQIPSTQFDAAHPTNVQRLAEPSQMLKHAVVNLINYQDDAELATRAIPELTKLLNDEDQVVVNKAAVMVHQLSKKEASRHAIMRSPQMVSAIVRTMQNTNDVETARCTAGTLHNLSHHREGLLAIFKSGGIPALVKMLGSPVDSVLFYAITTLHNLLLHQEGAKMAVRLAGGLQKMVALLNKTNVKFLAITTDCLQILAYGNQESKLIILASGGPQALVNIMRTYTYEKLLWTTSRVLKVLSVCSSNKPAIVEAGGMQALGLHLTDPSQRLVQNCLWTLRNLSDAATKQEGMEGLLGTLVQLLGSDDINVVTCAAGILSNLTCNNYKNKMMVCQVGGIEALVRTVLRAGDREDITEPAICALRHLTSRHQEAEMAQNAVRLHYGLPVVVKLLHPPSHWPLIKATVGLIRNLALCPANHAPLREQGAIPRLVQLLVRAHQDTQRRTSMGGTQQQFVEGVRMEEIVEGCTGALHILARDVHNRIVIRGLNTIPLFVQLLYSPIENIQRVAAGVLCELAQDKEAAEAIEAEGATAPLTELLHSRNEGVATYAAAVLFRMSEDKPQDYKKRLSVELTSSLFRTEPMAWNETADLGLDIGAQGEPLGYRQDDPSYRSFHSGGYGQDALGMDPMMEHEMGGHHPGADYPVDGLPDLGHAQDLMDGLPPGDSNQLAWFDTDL
Assay: fluorescence polarization competition; full-length beta-catenin, competitor 5FAM-TCF4 10-53
pIC50: −log10 of the molar value. Starred links: 1 amine or outer side, 2 acyl side, 3 side chain; linkers in the order of their positions; H or OH if unused. Positions of bridges follow the written chain, without caps; N, C: chain ends. Non-standard residues stand in square brackets, D forms with d. Primed or numbered codes have the meaning given here. B5(16) = 2-amino-2-(pent-4-en-1-yl)hept-6-enoic acid = 2,2-bis(4-pentenyl)glycine (stitching residue), C=CCCCC(CCCC=C)(N[*:1])C(=O)[*:2]; B5(9) = 2-amino-2-(pent-4-en-1-yl)hept-6-enoic acid (2,2-bis(4-pentenyl)glycine), C=CCCCC(CCCC=C)(N[*:1])C(=O)[*:2]; Bta = N[C@@H](Cc1csc2ccccc12)C(=O)O; αAllylPro = C=CC[C@@]1(C(=O)O)CCCN1; S8 = C=CCCCCCC[C@](C)(N)C(=O)O
pIC50 values, listed per item

binder	pIC50
XDIXDEAAFQXFXS (not fully specified; As printed: Ac-PL3-Asp-Ile-B5-Asp-Glu-Ala-Ala-Phe-Gln-S8-Phe-BztA-Ser-NH2; N-terminal Ac, C-terminal NH2; PL3 (1), B5 (4), S8 (11), BztA (13); staples PL3-B5 and B5-S8 by olefin metathesis, Stapled peptide composition; also called Ac-PL3-Asp-Ile-B5-Asp-Glu-Ala-Ala-Phe-Gln-S8-Phe-BztA-Ser-NH2) [I-640]	7.06
XDIXDEAAFQXFXT (not fully specified; As printed: Ac-PL3-Asp-Ile-B5-Asp-Glu-Ala-Ala-Phe-Gln-S8-Phe-BztA-Thr-NH2; N-terminal Ac, C-terminal NH2; PL3 (1), B5 (4), S8 (11), BztA (13); staples PL3-B5 and B5-S8 by olefin metathesis, Stapled peptide composition; also called Ac-PL3-Asp-Ile-B5-Asp-Glu-Ala-Ala-Phe-Gln-S8-Phe-BztA-Thr-NH2) [I-642]	6.93
Ac-[αAllylPro]DI[B5(9)]DEAAFQ[S8]F[Bta]V-NH2 (staple 1-4, 4-11, Stapled peptide composition; also called Ac-PL3-Asp-Ile-B5-Asp-Glu-Ala-Ala-Phe-Gln-S8-Phe-BztA-Val-NH2) [I-646]	6.34
Ac-[αAllylPro]DI[B5(9)]DEFAFQ[S8]F[Bta]Q-NH2 (staple 1-4, 4-11, Stapled peptide composition; also called Ac-PL3-Asp-Ile-B5-Asp-Glu-Phe-Ala-Phe-Gln-S8-Phe-BztA-Gln-NH2) [I-649]	6.68
Ac-[αAllylPro]DI[B5(16)]DEAAFQ[S8]F[Bta]Y-NH2 (staple 1-4, 4-11, Stapled peptide composition; also called Ac-PL3-Asp-Ile-B5-Asp-Glu-Ala-Ala-Phe-Gln-S8-Phe-BztA-Tyr-NH2) [I-636]	6.70
XDIXDEAAFQXFXS (not fully specified; As printed: Ac-PL3-Asp-Ile-B5-Asp-Glu-Ala-Ala-Phe-Gln-S8-Phe-BztA-Ser-NH2; N-terminal Ac, C-terminal NH2; PL3 (1), B5 (4), S8 (11), BztA (13); staples PL3-B5 and B5-S8 by olefin metathesis, Stapled peptide composition; also called Ac-PL3-Asp-Ile-B5-Asp-Glu-Ala-Ala-Phe-Gln-S8-Phe-BztA-Ser-NH2) [I-639]	6.96
Ac-[αAllylPro]DI[B5(9)]DEAAFQ[S8]F[Bta]V-NH2 (staple 1-4, 4-11, Stapled peptide composition; also called Ac-PL3-Asp-Ile-B5-Asp-Glu-Ala-Ala-Phe-Gln-S8-Phe-BztA-Val-NH2) [I-645]	6.40
